- target system: MraY transferase purified from Aquifex aeolicus (MraYAA) (Aquifex aeolicus, UniProt O66465)
- Sequence (O66465 whole entry): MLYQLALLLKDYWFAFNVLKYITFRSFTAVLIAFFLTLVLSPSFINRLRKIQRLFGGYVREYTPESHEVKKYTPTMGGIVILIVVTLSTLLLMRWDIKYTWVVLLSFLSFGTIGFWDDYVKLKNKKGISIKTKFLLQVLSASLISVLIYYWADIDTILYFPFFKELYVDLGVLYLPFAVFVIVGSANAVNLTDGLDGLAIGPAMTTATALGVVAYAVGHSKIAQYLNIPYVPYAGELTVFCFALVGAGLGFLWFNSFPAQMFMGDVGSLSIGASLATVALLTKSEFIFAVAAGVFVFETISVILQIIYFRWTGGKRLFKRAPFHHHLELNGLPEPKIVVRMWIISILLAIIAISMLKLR

{"compound": "CCCCCCCCCCc1cn(C[C@H](O[C@@H]2O[C@H](CN)[C@@H](O)[C@H]2O)[C@H]2O[C@@H](n3ccc(=O)[nH]c3=O)[C@H](O)[C@@H]2O)nn1 [Compound 13, reference compound]", "readout units": "µM", "IC50": 1.1}
{"compound": "CCCCCCCCCC(C(=O)O)c1nc(C[C@H](O[C@@H]2O[C@H](CN)[C@@H](O)[C@H]2O)[C@H]2O[C@@H](n3ccc(=O)[nH]c3=O)[C@H](O)[C@@H]2O)no1 (some centres unmarked) [Compound 12j]", "readout units": "µM", "IC50": 2.9}
{"compound": "CCCCCCCCCCCCCCCCCCc1nc(C[C@H](O[C@@H]2O[C@H](CN)[C@@H](O)[C@H]2O)[C@H]2O[C@@H](n3ccc(=O)[nH]c3=O)[C@H](O)[C@@H]2O)no1.O=C(O)C(F)(F)F [Compound 12c]", "readout units": "µM", "IC50": 15.8}
{"compound": "NC[C@H]1O[C@@H](O[C@@H](Cc2noc(CCCCCCCCCc3ccccc3)n2)[C@H]2O[C@@H](n3ccc(=O)[nH]c3=O)[C@H](O)[C@@H]2O)[C@H](O)[C@@H]1O.O=C(O)C(F)(F)F [Compound 12g]", "readout units": "µM", "IC50": 5.8}
{"compound": "CCCCCCCCCCc1nc(C[C@H](O[C@@H]2O[C@H](CN)[C@@H](O)[C@H]2O)[C@H]2O[C@@H](n3ccc(=O)[nH]c3=O)[C@H](O)[C@@H]2O)no1.O=C(O)C(F)(F)F [Compound 12a]", "readout units": "µM", "IC50": 0.8}

---

Listed here are compounds together with their documented pIC50.
- target system: MraY transferase purified from Aquifex aeolicus (MraYAA) (Aquifex aeolicus, UniProt O66465)
pIC50: −log10 of the molar value.

{"compound": "NC[C@H]1O[C@@H](O[C@@H](Cc2noc(-c3ccc(Oc4ccccc4)cc3)n2)[C@H]2O[C@@H](n3ccc(=O)[nH]c3=O)[C@H](O)[C@@H]2O)[C@H](O)[C@@H]1O.O=C(O)C(F)(F)F [Compound 12e]", "pIC50": 5.49}
{"compound": "CCCCCCCC/C=C/CCCCCCCc1nc(C[C@H](O[C@@H]2O[C@H](CN)[C@@H](O)[C@H]2O)[C@H]2O[C@@H](n3ccc(=O)[nH]c3=O)[C@H](O)[C@@H]2O)no1.O=C(O)C(F)(F)F [Compound 12f]", "pIC50": 4.76}
{"compound": "CCCCCCCCCC(C(=O)OCC)c1nc(C[C@H](O[C@@H]2O[C@H](CN)[C@@H](O)[C@H]2O)[C@H]2O[C@@H](n3ccc(=O)[nH]c3=O)[C@H](O)[C@@H]2O)no1 (mixture of isomers) [Compound 12h]", "pIC50": 4.56}
{"compound": "CCCCCCCCCCCCCCCc1nc(C[C@H](O[C@@H]2O[C@H](CN)[C@@H](O)[C@H]2O)[C@H]2O[C@@H](n3ccc(=O)[nH]c3=O)[C@H](O)[C@@H]2O)no1.O=C(O)C(F)(F)F [Compound 12b]", "pIC50": 5.03}
{"compound": "CCCCCCCC/C=C\\CCCCCCCc1nc(C[C@H](O[C@@H]2O[C@H](CN)[C@@H](O)[C@H]2O)[C@H]2O[C@@H](n3ccc(=O)[nH]c3=O)[C@H](O)[C@@H]2O)no1.O=C(O)C(F)(F)F [Compound 12d]", "pIC50": 4.72}

---

- Tested on: Staphylococcus aureus ATCC 25923
- experiment summary: Antibacterial activity (CMI)
- Assay type: cell-based
- condition summary: Gram +

{"molecule": "NC[C@H]1O[C@@H](O[C@@H](Cc2noc(-c3ccc(Oc4ccccc4)cc3)n2)[C@H]2O[C@@H](n3ccc(=O)[nH]c3=O)[C@H](O)[C@@H]2O)[C@H](O)[C@@H]1O.O=C(O)C(F)(F)F [Compound 12e]", "CMI": "> 50 µg/mL"}
{"molecule": "CCCCCCCCCCCCCCCc1nc(C[C@H](O[C@@H]2O[C@H](CN)[C@@H](O)[C@H]2O)[C@H]2O[C@@H](n3ccc(=O)[nH]c3=O)[C@H](O)[C@@H]2O)no1.O=C(O)C(F)(F)F [Compound 12b]", "CMI": "> 50 µg/mL"}
{"molecule": "CCCCCCCC/C=C\\CCCCCCCc1nc(C[C@H](O[C@@H]2O[C@H](CN)[C@@H](O)[C@H]2O)[C@H]2O[C@@H](n3ccc(=O)[nH]c3=O)[C@H](O)[C@@H]2O)no1.O=C(O)C(F)(F)F [Compound 12d]", "CMI": "> 50 µg/mL"}
{"molecule": "CN[C@H](CC(C)C)C(=O)N[C@H]1C(=O)N[C@@H](CC(N)=O)C(=O)N[C@H]2C(=O)N[C@H]3C(=O)N[C@H](C(=O)N[C@H](C(=O)O)c4cc(O)cc(O)c4-c4cc3ccc4O)[C@H](O)c3ccc(c(Cl)c3)Oc3cc2cc(c3O[C@@H]2O[C@H](CO)[C@@H](O)[C@H](O)[C@H]2O[C@H]2C[C@](C)(N)[C@H](O)[C@H](C)O2)Oc2ccc(cc2Cl)[C@H]1O [Vancomycin, reference compound]", "CMI": "1 µg/mL"}
{"molecule": "CCCCCCCCCC(C(=O)OCC)c1nc(C[C@H](O[C@@H]2O[C@H](CN)[C@@H](O)[C@H]2O)[C@H]2O[C@@H](n3ccc(=O)[nH]c3=O)[C@H](O)[C@@H]2O)no1 (mixture of isomers) [Compound 12h]", "CMI": "> 50 µg/mL"}

---

- Tested on: Staphylococcus aureus MRSA ATCC 43300
- experiment summary: Antibacterial activity (CMI)
- Type: cell-based
- condition summary: Gram +

{"compound": "NC[C@H]1O[C@@H](O[C@@H](Cc2noc(-c3ccc(Oc4ccccc4)cc3)n2)[C@H]2O[C@@H](n3ccc(=O)[nH]c3=O)[C@H](O)[C@@H]2O)[C@H](O)[C@@H]1O.O=C(O)C(F)(F)F [Compound 12e]", "CMI": "> 50 µg/mL"}
{"compound": "CCCCCCCC/C=C\\CCCCCCCc1nc(C[C@H](O[C@@H]2O[C@H](CN)[C@@H](O)[C@H]2O)[C@H]2O[C@@H](n3ccc(=O)[nH]c3=O)[C@H](O)[C@@H]2O)no1.O=C(O)C(F)(F)F [Compound 12d]", "CMI": "> 50 µg/mL"}
{"compound": "CCCCCCCCCCC(CCCCCCCCCC)c1nc(C[C@H](O[C@@H]2O[C@H](CN)[C@@H](O)[C@H]2O)[C@H]2O[C@@H](n3ccc(=O)[nH]c3=O)[C@H](O)[C@@H]2O)no1.O=C(O)C(F)(F)F [Compound 12i]", "CMI": "> 50 µg/mL"}
{"compound": "CCCCCCCC/C=C/CCCCCCCc1nc(C[C@H](O[C@@H]2O[C@H](CN)[C@@H](O)[C@H]2O)[C@H]2O[C@@H](n3ccc(=O)[nH]c3=O)[C@H](O)[C@@H]2O)no1.O=C(O)C(F)(F)F [Compound 12f]", "CMI": "50 µg/mL"}
{"compound": "NC[C@H]1O[C@@H](O[C@@H](Cc2noc(CCCCCCCCCc3ccccc3)n2)[C@H]2O[C@@H](n3ccc(=O)[nH]c3=O)[C@H](O)[C@@H]2O)[C@H](O)[C@@H]1O.O=C(O)C(F)(F)F [Compound 12g]", "CMI": "> 50 µg/mL"}
{"compound": "CCCCCCCCCCCCCCCc1nc(C[C@H](O[C@@H]2O[C@H](CN)[C@@H](O)[C@H]2O)[C@H]2O[C@@H](n3ccc(=O)[nH]c3=O)[C@H](O)[C@@H]2O)no1.O=C(O)C(F)(F)F [Compound 12b]", "CMI": "> 50 µg/mL"}
{"compound": "CCCCCCCCCCc1nc(C[C@H](O[C@@H]2O[C@H](CN)[C@@H](O)[C@H]2O)[C@H]2O[C@@H](n3ccc(=O)[nH]c3=O)[C@H](O)[C@@H]2O)no1.O=C(O)C(F)(F)F [Compound 12a]", "CMI": "> 50 µg/mL"}
{"compound": "CCCCCCCCCCCCCCCCCCc1nc(C[C@H](O[C@@H]2O[C@H](CN)[C@@H](O)[C@H]2O)[C@H]2O[C@@H](n3ccc(=O)[nH]c3=O)[C@H](O)[C@@H]2O)no1.O=C(O)C(F)(F)F [Compound 12c]", "CMI": "50 µg/mL"}
